Attribution: paper PMC7697615

- assay-system: MAO-A (Homo sapiens, UniProt P21397)
- Construct: purchased BD Biosciences (Bedford, MA, USA)
- Sequence (P21397 1-527): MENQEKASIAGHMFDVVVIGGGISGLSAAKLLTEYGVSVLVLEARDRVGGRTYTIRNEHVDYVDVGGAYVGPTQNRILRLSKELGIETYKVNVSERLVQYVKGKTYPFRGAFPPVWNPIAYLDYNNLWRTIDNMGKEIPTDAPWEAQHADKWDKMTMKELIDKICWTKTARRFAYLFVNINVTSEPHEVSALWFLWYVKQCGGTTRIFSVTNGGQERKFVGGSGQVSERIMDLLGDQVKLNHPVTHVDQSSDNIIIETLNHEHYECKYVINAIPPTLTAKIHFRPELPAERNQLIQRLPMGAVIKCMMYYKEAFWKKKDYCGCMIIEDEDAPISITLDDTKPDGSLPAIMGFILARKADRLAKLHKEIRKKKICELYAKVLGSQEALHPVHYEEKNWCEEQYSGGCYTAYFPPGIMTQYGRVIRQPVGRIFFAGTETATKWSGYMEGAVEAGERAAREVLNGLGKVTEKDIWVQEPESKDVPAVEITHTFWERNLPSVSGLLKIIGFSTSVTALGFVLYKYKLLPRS
- protocol-details: MAO inhibition assay (kynuramine oxidative deamination), MAO-A
- Type: biochemical
- experimental-parameters: kynuramine 80 μM; mean ± S.D. of at least triplicate observations; read-out: MAO-A IC50
quantity: IC50 (µM)

Study these solved cases before continuing.
compound	unit-tag	reported-measurement
COc1cc(O)c(C(=O)/C=C/c2ccccc2)c(OC)c1 [Compound 2, 2′-hydroxy-4′,6′-dimethoxy-chalcone]	µM	0.407
COc1cc(-c2cc(=O)c3c(O)cc(O)cc3o2)c(OC)c(OC)c1OC	µM	87.5

A. COc1cc2oc(-c3ccc(O)cc3)cc(=O)c2c(O)c1C
B. COc1ccc(-c2oc3cc(O)cc(O)c3c(=O)c2OC)cc1
C. COc1ccc(-c2oc3cc(O)cc(O)c3c(=O)c2O)cc1
Order field: IC50 | Direction: descending (largest first) Please, when replying, give the labels in the order that was requested.
A, C, B

---

- assay-system: MAO-A (Homo sapiens, UniProt P21397)
- Construct: purchased BD Biosciences (Bedford, MA, USA)
- protocol-details: Enzyme kinetics and mechanism study (Lineweaver-Burk), MAO-A
- Assay type: biochemical
- experimental-parameters: double reciprocal plots; mean ± SD of three observations; read-out: Ki, Monoamine Oxidase-A
pKi: −log10 of the molar value.
quantity: pKi

A. COc1cc(O)c(C(=O)/C=C/c2ccccc2)c(OC)c1 [Compound 2, 2′-hydroxy-4′,6′-dimethoxy-chalcone]
B. COc1ccc(-c2oc3cc(O)cc(O)c3c(=O)c2OC)cc1
C. COc1ccc(-c2oc3cc(O)cc(O)c3c(=O)c2O)cc1
Order the entries by their reported pKi, beginning at the minimum. Reply with the item labels sorted in the order that was asked for.
C, A, B

---

- assay-system: MAO-A (Homo sapiens, UniProt P21397)
- Construct: purchased BD Biosciences (Bedford, MA, USA)
- protocol-details: Enzyme kinetics and mechanism study (Lineweaver-Burk), MAO-A
- Format: biochemical
quantity: Ki (µM)
Numeric only. Scale: µM

Recorded Ki for COc1cc(O)cc(O)c1C(=O)/C=C/c1ccccc1 [Compound 3, 2′,4′-dihydroxy-6′-methoxy-chalcone] , please?
0.633

---

pKi: −log10 of the molar value.
List of pKi tested on UniProt P27338.
quantity: pKi

molecule	pKi
COc1cc2oc(-c3ccc(O)cc3)cc(=O)c2c(O)c1C	6.09
COc1cc(-c2cc(=O)c3c(O)cc(O)cc3o2)c(OC)c(OC)c1OC	6.06
COc1cc(O)cc(O)c1C(=O)/C=C/c1ccccc1 [Compound 3, 2′,4′-dihydroxy-6′-methoxy-chalcone]	5.91

---

- assay-system: MAO-B (Homo sapiens, UniProt P27338)
- Sequence (P27338 1-520): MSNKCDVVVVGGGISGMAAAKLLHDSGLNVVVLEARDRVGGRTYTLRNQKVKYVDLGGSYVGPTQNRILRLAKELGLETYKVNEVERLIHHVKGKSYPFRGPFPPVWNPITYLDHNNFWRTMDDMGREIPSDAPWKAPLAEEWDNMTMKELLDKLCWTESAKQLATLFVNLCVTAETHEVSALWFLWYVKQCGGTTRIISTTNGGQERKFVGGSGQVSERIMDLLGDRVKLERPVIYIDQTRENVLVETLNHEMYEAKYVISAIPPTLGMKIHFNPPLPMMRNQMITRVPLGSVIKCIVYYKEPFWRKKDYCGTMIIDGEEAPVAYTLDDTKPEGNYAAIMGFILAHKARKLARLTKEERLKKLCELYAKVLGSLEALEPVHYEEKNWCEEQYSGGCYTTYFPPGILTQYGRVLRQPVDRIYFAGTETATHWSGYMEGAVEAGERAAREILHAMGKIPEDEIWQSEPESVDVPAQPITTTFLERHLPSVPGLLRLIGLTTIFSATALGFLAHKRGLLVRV
quantity: IC50 (nM)

compound	IC50, nM
COc1cc(O)cc(O)c1C(=O)/C=C/c1ccccc1 [Compound 3, 2′,4′-dihydroxy-6′-methoxy-chalcone]	2700

A. COc1cc(O)c(C(=O)/C=C/c2ccccc2)c(OC)c1 [Compound 2, 2′-hydroxy-4′,6′-dimethoxy-chalcone]
B. COc1cc(-c2cc(=O)c3c(O)cc(O)cc3o2)c(OC)c(OC)c1OC [Compound 6]
Could you kindly indicate whether A or B has the higher IC50 value? Write down the label of the entry you select.
A

---

- assay-system: MAO-A (Homo sapiens)
- Construct: purchased BD Biosciences (Bedford, MA, USA)
- Sequence (P21397 1-527): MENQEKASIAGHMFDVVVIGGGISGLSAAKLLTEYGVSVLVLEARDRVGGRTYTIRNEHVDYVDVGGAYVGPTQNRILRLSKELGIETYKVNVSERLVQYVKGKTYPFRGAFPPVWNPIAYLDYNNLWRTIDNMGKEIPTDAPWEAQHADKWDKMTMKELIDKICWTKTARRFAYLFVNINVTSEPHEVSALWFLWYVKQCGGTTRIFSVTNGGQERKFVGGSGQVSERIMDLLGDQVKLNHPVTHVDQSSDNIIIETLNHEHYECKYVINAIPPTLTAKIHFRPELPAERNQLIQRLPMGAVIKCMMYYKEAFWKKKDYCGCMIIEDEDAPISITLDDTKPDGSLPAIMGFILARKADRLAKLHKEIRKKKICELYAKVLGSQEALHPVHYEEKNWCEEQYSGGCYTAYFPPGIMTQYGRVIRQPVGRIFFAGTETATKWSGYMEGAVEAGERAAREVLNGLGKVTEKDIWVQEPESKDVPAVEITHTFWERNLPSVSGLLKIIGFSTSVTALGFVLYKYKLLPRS
- protocol-details: MAO inhibition assay (kynuramine oxidative deamination), MAO-A
- Type: biochemical
- experimental-parameters: ratio of IC50 values
- Method: In this study, we have investigated the effect of the isolated constituents (1–6) on human recombinant MAO-A and -B. The kynuramine oxidation deamination assay was performed in 96-well plates as previously reported, with modification. […] The inhibition effects of enzyme activity were calculated as the percent of product formation compared to the corresponding controls (enzyme–substrate reaction) without inhibitors. […]
quantity: SI b (Selectivity index: MAO-A IC50/MAO-B IC50)

molecule	assay-system	reported-measurement
COc1cc(O)cc(O)c1C(=O)/C=C/c1ccccc1 [Compound 3, 2′,4′-dihydroxy-6′-methoxy-chalcone]	MAO-A (Homo sapiens)	0.432

A. COc1cc(-c2cc(=O)c3c(O)cc(O)cc3o2)c(OC)c(OC)c1OC
B. COc1ccc(-c2oc3cc(O)cc(O)c3c(=O)c2OC)cc1
C. COc1cc2oc(-c3ccc(O)cc3)cc(=O)c2c(O)c1C
Rank items: key SI b (Selectivity index: MAO-A IC50/MAO-B IC50), increasing. A complete answer lists every label in the requested sequence.
B, C, A
(B: 0.0034, C: 6.451, A: 100.0)

---

- assay-system: MAO-A (Homo sapiens)
- Construct: purchased BD Biosciences (Bedford, MA, USA)
- protocol-details: MAO inhibition assay (kynuramine oxidative deamination), MAO-A
- Format: biochemical
quantity: pIC50
Scale note: pIC50 = -log10(concentration in M).

API: value(readout=pIC50, system=MAO-A (Homo sapiens)) for record COc1cc(O)cc(O)c1C(=O)/C=C/c1ccccc1 [Compound 3, 2′,4′-dihydroxy-6′-methoxy-chalcone]
5.93
